biological target: Kv7.2/7.3 (Homo sapiens, UniProt O43525+O43526); construct: host or cells: HEK cells, tetracycline-inducible expression; experiment: Kv7.2/7.3 activation assay, QPatch planar patch-clamp, single concentration screen; assay type: cell-based; design: key: <1.2-fold increase over baseline (−); +/−: as a range from <1.2-fold increase over baseline (−) up to >6-fold increase over baseline (+++); as a range from <1.2-fold increase over baseline (−) up to >6-fold increase over baseline (+++); as a range from <1.2-fold increase over baseline (−) up to >6-fold increase over baseline (+++); >6-fold increase over baseline (+++); details: Kv7.2/Kv7.3 co-expressing HEK cells, compound 3 μM, steady-state current at end of 2 s pulse to −30 mV
assayMetric: Kv7.2/7.3 Activity: increase in current over baseline

Please review the entries below; each comes with its answer.
compound	valueReported
CC(C)[C@H](C)C(=O)Nc1nc2ccc(C#N)cc2n1-c1ccc(F)cc1	+
CC(C)(C)CC(=O)Nc1nc2ccccc2n1C1CCC1	+
CC(O)(CC(=O)Nc1nc2ccc(C#N)cc2n1C1CCC1)C1CCC1 (stereo not drawn)	+
CC(C)(C)CC(=O)Nc1nc2cccc(C(C)(C)O)c2n1C1CCC1	+/−
CC(C)(C)C(=O)Nc1nc2ccc(C(C)(C)O)cc2n1C1CCC1	+/−
C[C@](O)(CC(=O)Nc1nc2ccc(C#N)cc2n1C1CCC1)c1cccnc1	+/−
CC(C)(O)CC(=O)Nc1nc2ccc(C(F)(F)F)cc2n1-c1ccc(F)c(F)c1	++
C[C@@H](C(=O)Nc1nc2ccc(C#N)cc2n1C1CCC1)C(C)(C)C	+

Now take the following compound into account.
**Q:** Consider the compound C[C@H](C(=O)Nc1nc2ccc(C#N)cc2n1C1CCC1)C1(O)CCC1 and give its measured Kv7.2/7.3 Activity: increase in current over baseline.
**A:** +/−
